assay overview: Selectivity ratio of IC50 for bovine milk LPO to IC50 for recombinant MPO (unknown origin)
measured property: Ratio IC50
Form: value (number only, do not type unit).

These recorded examples may help you get a feel for the data.
In [3]: df
Out[3]:
                                   compound  measured_result
0              COc1ccc2c(C)nc(NC(=N)N)nc2c1               73
1  O=c1c(O)c(-c2ccc(O)c(O)c2)oc2cc(O)cc(O)c12 [QUERCETIN]                5
2            NNc1nncc2ccccc12 [HYDRALAZINE]              1.3
3           COc1cc(N[C@H](C)CCCN)c2ncccc2c1                3
4               Cc1nc(N=C(N)N)nc2cc(F)ccc12               30

Now for a further compound.
Exam item: What Ratio IC50 value was documented for this compound, O=c1cc(-c2ccc(O)cc2)oc2cc(O)cc(O)c12 [APIGENIN] ?
Marked response: 5.6

----------
Activity by entry:
test system: Myeloperoxidase (Homo sapiens) (UniProt P05164)
assay overview: Inhibition of recombinant MPO (unknown origin) assessed as reduction in TMB peroxidation by measuring residual activity at 5 uM in presence of H2O2 and NaCl incubated for 5 mins followed by 100 fold enzyme dilution relative to control
Just the number please, in %, no unit attached.

These recorded examples may help you get a feel for the data.
>>> df
                                   compound  measured_property  measured_result
0           CC(C)NCC(=O)c1nc2cc(F)ccc2[nH]1           Activity               81
1           COc1cc(N[C@H](C)CCCN)c2ncccc2c1           Activity               86
2  Fc1ccc2[nH]c([C@@H]3CCN(CC4NC=CN4)C3)nc2c1           Activity               84
3  Cc1cccc(Nc2ccccc2C(=O)O)c1C [MEFENAMIC ACID]           Activity               87
4  O=c1c(O)c(-c2ccc(O)c(O)c2)oc2cc(O)cc(O)c12 [QUERCETIN]           Activity               79

Exam item: What Activity value was documented for this compound, COc1ccc2c(C)nc(NC(=N)N)nc2c1 ?
Marked response: 5

Exam item: Would you kindly repeat that for O=c1c(O)c(-c2ccc(O)cc2)oc2cc(O)cc(O)c12 [KAEMPFEROL] ?
Marked response: 84

Exam item: Would you kindly repeat that for NNc1nncc2ccccc12 [HYDRALAZINE] ?
Marked response: 6

----------
pIC50 by entry:
test system: Lactoperoxidase (Bos taurus, UniProt P80025)
assay overview: Inhibition of bovine milk LPO assessed as reduction in NaOSCN production in presence of H2O2/NaSCN after 5 mins
Please note pIC50 is a logarithmic value: minus log10 of concentration in mol/L. Answer with that number alone.

>>> print(df.to_string())
                         compound  measured_property  measured_result
0  NNc1nncc2ccccc12 [HYDRALAZINE]              pIC50             5.92

Now for a further compound.
Exam item: What pIC50 value was documented for this compound, Cc1nc(N=C(N)N)nc2cc(F)ccc12 ?
Marked response: 5.41

----------
test system: Myeloperoxidase (Homo sapiens) (UniProt P05164)
Sequence (whole entry): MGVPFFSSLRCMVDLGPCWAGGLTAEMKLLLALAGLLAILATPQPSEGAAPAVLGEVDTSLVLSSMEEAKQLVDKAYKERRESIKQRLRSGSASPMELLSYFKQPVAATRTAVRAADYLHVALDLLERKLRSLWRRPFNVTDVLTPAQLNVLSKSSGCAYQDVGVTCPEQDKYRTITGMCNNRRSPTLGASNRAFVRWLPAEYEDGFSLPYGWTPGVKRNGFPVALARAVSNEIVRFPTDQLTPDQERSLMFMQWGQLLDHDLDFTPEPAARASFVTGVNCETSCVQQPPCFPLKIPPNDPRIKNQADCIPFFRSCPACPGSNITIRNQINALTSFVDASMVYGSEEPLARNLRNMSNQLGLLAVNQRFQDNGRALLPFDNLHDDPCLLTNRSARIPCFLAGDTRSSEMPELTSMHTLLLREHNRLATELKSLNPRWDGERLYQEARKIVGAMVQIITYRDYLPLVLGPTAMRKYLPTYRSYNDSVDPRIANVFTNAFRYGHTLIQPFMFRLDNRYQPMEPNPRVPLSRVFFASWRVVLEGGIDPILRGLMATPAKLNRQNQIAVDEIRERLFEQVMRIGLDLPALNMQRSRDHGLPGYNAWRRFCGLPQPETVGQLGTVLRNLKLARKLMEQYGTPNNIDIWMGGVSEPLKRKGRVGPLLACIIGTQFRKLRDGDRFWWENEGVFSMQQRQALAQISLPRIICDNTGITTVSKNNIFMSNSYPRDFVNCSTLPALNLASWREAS
assay overview: Inhibition of recombinant MPO (unknown origin) assessed as reduction in taurine chloramine production at 5 uM preincubated with enzyme and taurine followed by H2O2 addition measured after 5 mins relative to control
inhibition by entry:

In [3]: df
Out[3]:
                                        mol                               test_system  measured_property  measured_result
0  C[C@H](COc1ccccc1)N[C@@H](C)[C@@H](O)c1ccc(O)cc1  Myeloperoxidase (Homo sapiens) (UniProt P05164)         inhibition            5.32%
1    CN(C)CCCN1c2ccccc2Sc2ccc(C(F)(F)F)cc21  Myeloperoxidase (Homo sapiens) (UniProt P05164)         inhibition            12.3%

Exam item: What inhibition value was documented for this compound, CSc1ccc2c(c1)N(CC[C@H]1CCCCN1C)c1ccccc1S2 ?
Marked response: 24.2%

Exam item: Would you kindly repeat that for Cc1ccc(-c2cc(C(F)(F)F)nn2-c2ccc(S(N)(=O)=O)cc2)cc1 ?
Marked response: 11%

Exam item: Would you kindly repeat that for Nc1cc(=O)[nH]c(CSc2ccc(F)c3ccccc23)n1 ?
Marked response: 37.2%

----------
Kapp by entry:
test system: Myeloperoxidase (Homo sapiens)
Sequence (whole entry): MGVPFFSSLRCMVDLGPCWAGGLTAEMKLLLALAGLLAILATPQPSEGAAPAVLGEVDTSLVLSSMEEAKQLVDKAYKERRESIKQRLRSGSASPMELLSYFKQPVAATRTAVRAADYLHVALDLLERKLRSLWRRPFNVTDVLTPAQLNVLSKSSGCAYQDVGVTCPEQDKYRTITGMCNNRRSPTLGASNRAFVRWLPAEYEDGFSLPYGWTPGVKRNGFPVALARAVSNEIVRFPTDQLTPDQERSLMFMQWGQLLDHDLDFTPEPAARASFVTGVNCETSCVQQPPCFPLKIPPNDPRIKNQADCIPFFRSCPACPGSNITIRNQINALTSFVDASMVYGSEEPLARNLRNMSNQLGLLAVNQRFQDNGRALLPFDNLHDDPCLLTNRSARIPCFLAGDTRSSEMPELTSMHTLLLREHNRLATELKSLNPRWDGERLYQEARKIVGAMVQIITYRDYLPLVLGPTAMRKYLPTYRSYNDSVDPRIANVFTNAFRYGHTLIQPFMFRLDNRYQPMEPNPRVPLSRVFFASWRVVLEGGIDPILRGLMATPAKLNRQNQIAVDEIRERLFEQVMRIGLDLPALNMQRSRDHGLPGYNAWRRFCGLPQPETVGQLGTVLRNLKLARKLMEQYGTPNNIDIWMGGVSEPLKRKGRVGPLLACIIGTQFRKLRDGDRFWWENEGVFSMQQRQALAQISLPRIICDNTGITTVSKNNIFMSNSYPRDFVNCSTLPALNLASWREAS
assay overview: Inhibition of MPO (unknown origin) assessed as apparent bi-molecular rate constant for PorFe(4)=O radical reduction by stopped-flow spectroscopic analysis
Just the number please, in ×10⁶ /M/s, no unit attached.

These recorded examples may help you get a feel for the data.
                         compound  measured_result
0  NNc1nncc2ccccc12 [HYDRALAZINE]              7.1
1    COc1ccc2c(C)nc(NC(=N)N)nc2c1              1.9

Now for a further compound.
Exam item: What Kapp value was documented for this compound, CSc1ccc2c(c1)N(CC[C@H]1CCCCN1C)c1ccccc1S2 ?
Marked response: 5.2

----------
test system: Myeloperoxidase (Homo sapiens, UniProt P05164)
Sequence (P05164 whole entry): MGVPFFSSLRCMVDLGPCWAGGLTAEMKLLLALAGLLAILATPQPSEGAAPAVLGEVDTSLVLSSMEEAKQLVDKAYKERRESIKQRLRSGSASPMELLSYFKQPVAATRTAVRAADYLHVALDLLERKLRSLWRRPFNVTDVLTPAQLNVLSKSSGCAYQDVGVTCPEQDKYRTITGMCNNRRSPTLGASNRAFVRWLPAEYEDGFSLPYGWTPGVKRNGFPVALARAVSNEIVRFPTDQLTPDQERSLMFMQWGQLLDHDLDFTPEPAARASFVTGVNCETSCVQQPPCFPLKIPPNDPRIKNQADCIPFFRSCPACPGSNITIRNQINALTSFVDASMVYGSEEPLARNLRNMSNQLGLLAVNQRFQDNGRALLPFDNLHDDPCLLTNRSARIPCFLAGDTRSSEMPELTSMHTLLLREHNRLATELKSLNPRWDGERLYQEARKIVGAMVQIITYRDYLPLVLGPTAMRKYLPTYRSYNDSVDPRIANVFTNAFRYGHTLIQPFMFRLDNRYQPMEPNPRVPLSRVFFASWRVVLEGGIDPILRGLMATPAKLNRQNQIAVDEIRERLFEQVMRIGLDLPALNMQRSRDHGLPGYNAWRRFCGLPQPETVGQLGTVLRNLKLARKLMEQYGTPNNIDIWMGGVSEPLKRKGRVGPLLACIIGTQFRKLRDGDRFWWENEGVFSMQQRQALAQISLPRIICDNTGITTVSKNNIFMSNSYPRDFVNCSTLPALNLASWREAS
assay overview: Inhibition of recombinant MPO (unknown origin) assessed as reduction in taurine chloramine production preincubated with enzyme and taurine followed by H2O2 addition measured after 5 mins
pIC50: −log10 of the molar value.
Just so you know, the groups by pIC50 go like this: small value = under 6, mid value = from 6 up to 7, large value = 7 and over

Answered cases to consult:
>>> print(df.to_string())
                               molecule                               test_system  answer_label
0       COc1cc(N[C@H](C)CCCN)c2ncccc2c1  Myeloperoxidase (Homo sapiens, UniProt P05164)     mid value
1  O=c1cc(-c2ccc(O)cc2)oc2cc(O)cc(O)c12  Myeloperoxidase (Homo sapiens, UniProt P05164)   small value

Exam item: Tag the class for Cc1nc(NC(=N)N)nc2ccc(Cl)cc12
Marked response: mid value

Exam item: Would you kindly repeat that for COc1ccc2c(C)nc(NC(=N)N)nc2c1 ?
Marked response: large value

Exam item: Would you kindly repeat that for CCN1CCC[C@H]1CNC(=O)c1cc(S(N)(=O)=O)ccc1OC [LEVOSULPIRIDE] ?
Marked response: small value
